pIC50 reference
# study_system: Apelin receptor (Homo sapiens)
# procedure_text: potency against CXCR6 with APJ panel – cell-based, beta-arrestin, DiscoveRx, uHTS hits, dose response (AID 624129)
# measurement_parameters: CXCR6 beta-arrestin (DiscoveRx) antagonist cell assay, APJ, run 3, dose range 1
pIC50: −log10 of the molar value.

# example entries with known answers
Cc1cccc(C)c1NC(=O)c1nc(S(=O)(=O)Cc2ccccc2)ncc1Cl    < 4.10
CS(=O)(=O)c1sc(C#N)c2c1C(=O)CC(c1ccccc1)C2 (stereo not drawn)    < 4.10

Consider now this further molecule.
Exam item: Endpoint output: pIC50 of "Cn1c(=O)c([N+](=O)[O-])c(Cl)c2ccccc21" . Value?
Marked response: < 4.10

----------
# study_system: Apelin receptor (Homo sapiens)
# procedure_text: potency against CXCR6 with APJ panel – cell-based, beta-arrestin, DiscoveRx, uHTS hits, dose response (AID 624129)
# measurement_parameters: CXCR6 beta-arrestin (DiscoveRx) antagonist cell assay, APJ, dose range 1, mean IC50 across replicates
value_kind: pIC50
FYI, pIC50 means -log10 of a concentration in mol per litre.

# example entries with known answers
CCC(=O)OCCNc1cc(Sc2nc3ccccc3[nH]2)c2nonc2c1[N+](=O)[O-]    5.11
COCc1cc(=O)[nH]c(Nc2nc3ccc(C)cc3o2)n1    5.12
CCc1ccccc1OCC(=O)Nc1nc(-c2cccnc2)cs1    4.90
C/C(=N\NC(=O)c1cc(-c2cccs2)nc2ccccc12)c1ccccn1    5.12

Consider now this further molecule.
Exam item: Endpoint output: pIC50 of "NC(=S)N/N=C/c1ncc(C(F)(F)F)cc1Cl" . Value?
Marked response: 5.11

----------
# study_system: UniProtKB P35414
# procedure_text: potency against CXCR6 with APJ panel – cell-based, beta-arrestin, DiscoveRx, uHTS hits, dose response (AID 624129)
# measurement_parameters: CXCR6 beta-arrestin (DiscoveRx) antagonist cell assay, APJ, dose range 1
Active and inactive are the calls of the source. How the calls were made is not given here.
Classes to choose from: y for active, n for inactive

CC(Oc1ccc(F)cc1)C(=O)Nc1nc(-c2ccccn2)cs1 (stereo not drawn)    y
CCOc1ccc(NCC(=O)c2ccc(C)cc2)cc1    y

Exam item: State the result this test recorded for "CCC(=O)OCCNc1cc(Sc2nc3ccccc3s2)c2nonc2c1[N+](=O)[O-]" .
Marked response: y

Exam item: State the result this test recorded for "CS(=O)(=O)c1ncc(Cl)c(C(=O)Nc2ccc3ccccc3c2)n1" .
Marked response: y

Exam item: State the result this test recorded for "CCOc1ccc(N(CC(=O)N/N=C/c2ccccn2)S(=O)(=O)c2ccc(Cl)cc2)cc1" .
Marked response: y

Exam item: State the result this test recorded for "Cc1cc(S(=O)(=O)c2ccc(Cl)cc2)nc(S(=O)(=O)c2ccc(Cl)cc2)c1C#N" .
Marked response: y

Exam item: State the result this test recorded for "CCCOc1cccc(-c2cc(C(=O)N/N=C/c3ccccn3)c3ccccc3n2)c1" .
Marked response: y

Exam item: State the result this test recorded for "CN(c1ccccc1)S(=O)(=O)c1ccc(NC(=O)c2nc(S(C)(=O)=O)ncc2Cl)cc1" .
Marked response: y

Exam item: State the result this test recorded for "Cc1cccc(CSc2cccc3cccnc23)c1" .
Marked response: y

Exam item: State the result this test recorded for "Fc1ccc(NC(=S)Nc2nccs2)cc1" .
Marked response: y

Exam item: State the result this test recorded for "Cc1c(CCCl)c(Cl)n2c(nc3ccccc32)c1C#N" .
Marked response: n

Exam item: State the result this test recorded for "CCCC(=O)OCCNc1cc(Sc2nc3ccccc3[nH]2)c2nonc2c1[N+](=O)[O-]" .
Marked response: y

Exam item: State the result this test recorded for "N=C1S/C(=C\c2ccco2)C(=O)N1c1nccs1" .
Marked response: y

----------
# study_system: Apelin receptor (Homo sapiens) (UniProt P35414)
# procedure_text: potency against CXCR6 with APJ panel – cell-based, beta-arrestin, DiscoveRx, uHTS hits, dose response (AID 624129)
# measurement_parameters: CXCR6 beta-arrestin (DiscoveRx) antagonist cell assay, APJ, dose range 1
Calls of active or inactive are those of the source. No rule for the calls is given here.
Classes to choose from: active, inactive

Reference set (5 entries):
CC(=O)OCCCNc1cc(Sc2nc3ccccc3s2)c2nonc2c1[N+](=O)[O-]    inactive
Cc1ccsc1/C=C/c1ccc2cccc(O)c2n1    active
Cc1ccc(C(C[N+](=O)[O-])Sc2ccc(N)cc2)cc1 (stereo unspecified)    active
O=S(=O)(/C=C/C=C/S(=O)(=O)c1ccccc1)c1ccccc1    active
C/C(=N\NC(=O)c1cc(-c2cccs2)nc2ccccc12)c1ccccn1    active

Exam item: State the result this test recorded for "O=C1C(=C(c2ccccc2)N2CCOCC2)Cc2ccccc21" .
Marked response: active

Exam item: State the result this test recorded for "COC(CNC(=O)c1cc(C(=O)c2c(-c3c(Cl)cccc3Cl)noc2C)c[nH]1)OC" .
Marked response: active

Exam item: State the result this test recorded for "COC(=O)c1ccc2c(c1)C(C)(C)C(/C=C/c1ccccc1O)=[N+]2C" .
Marked response: active

----------
inhibition reference
# study_system: C-X-C chemokine receptor type 6 (Homo sapiens) (UniProt O00574)
# Sequence (O00574 whole entry, looked up): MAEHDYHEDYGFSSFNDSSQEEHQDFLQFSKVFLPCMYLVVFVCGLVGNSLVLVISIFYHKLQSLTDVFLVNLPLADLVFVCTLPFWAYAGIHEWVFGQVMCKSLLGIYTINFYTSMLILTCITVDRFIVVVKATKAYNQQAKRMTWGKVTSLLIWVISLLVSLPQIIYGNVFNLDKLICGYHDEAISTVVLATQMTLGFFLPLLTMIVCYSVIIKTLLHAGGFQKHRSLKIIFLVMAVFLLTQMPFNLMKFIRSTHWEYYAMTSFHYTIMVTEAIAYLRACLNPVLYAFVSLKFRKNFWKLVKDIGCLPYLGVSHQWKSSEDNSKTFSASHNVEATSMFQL
# procedure_text: potency against CXCR6 with APJ panel – cell-based, beta-arrestin, DiscoveRx, uHTS hits, dose response (AID 624129)
# measurement_parameters: CXCR6 beta-arrestin (DiscoveRx) antagonist cell assay, CXCR6, run 2, dose range 1, at 79 µM (top of the series)
# unit: % | format: bare number

Exam item: Endpoint output: inhibition of "O=[N+]([O-])c1ccc(N/N=C/c2sc(N3CCOCC3)nc2-c2ccccc2)c(S(=O)(=O)Nc2ccccc2Cl)c1" . Value?
Marked response: 95.7

Exam item: Endpoint output: inhibition of "Cc1ccc(NCC(=O)c2ccc(C)cc2)cc1" . Value?
Marked response: 58.5

Exam item: Endpoint output: inhibition of C=CCn1c(=O)c2c(nc3n2CC(C)CN3c2cccc(OC)c2)n(C)c1=O (centres undefined) . Value?
Marked response: 66.1

Exam item: Endpoint output: inhibition of "CC(C)[C@H](NC(=O)OC(C)(C)C)c1nnc(S(=O)(=O)Cc2c(F)cccc2Cl)o1" . Value?
Marked response: 111

Exam item: Endpoint output: inhibition of "O=C(C#Cc1cccc([N+](=O)[O-])c1)c1ccccc1" . Value?
Marked response: 108

----------
# study_system: C-X-C chemokine receptor type 6 (Homo sapiens)
# procedure_text: potency against CXCR6 with APJ panel – cell-based, beta-arrestin, DiscoveRx, uHTS hits, dose response (AID 624129)
# measurement_parameters: CXCR6 beta-arrestin (DiscoveRx) antagonist cell assay, CXCR6, dose range 1
Calls of active or inactive are those of the source. The rule behind the calls is not given here.
Classes to choose from: active, inactive

Reference set (7 entries):
CCc1ccccc1OCC(=O)Nc1nc(-c2cccnc2)cs1    inactive
CS(=O)(=O)c1ncc(Cl)c(C(=O)Nc2ccc3ccccc3c2)n1    inactive
COc1cc(C(=O)NC2CC3CCCC(C2)N3CC(=O)Nc2ccccc2)cc(OC)c1OC (stereo not drawn)    active
CC(=O)/C(=N\Nc1ccc(Cl)cc1Cl)Sc1cccc2cccnc12    active
O=C1C=CC(=O)N1c1ccc(-c2nc3ccccc3o2)cc1    active
COc1ccc([N+](=O)[O-])c(S(=O)(=O)c2ccc(Cl)cc2)n1    inactive
O=C(NNC(=O)C12CC3CC(CC(C3)C1)C2)c1ccccn1    active

Okay, next one:
Exam item: State the result this test recorded for "CCC(=O)OCCNc1cc(Sc2nccn2C)c2nonc2c1[N+](=O)[O-]" .
Marked response: active

----------
# study_system: UniProtKB P35414
# procedure_text: potency against CXCR6 with APJ panel – cell-based, beta-arrestin, DiscoveRx, uHTS hits, dose response (AID 624129)
# measurement_parameters: CXCR6 beta-arrestin (DiscoveRx) antagonist cell assay, APJ, run 3, dose range 1
value_kind: IC50

# example entries with known answers
O=[N+]([O-])c1ccc(S(=O)Cc2ccccc2)c([N+](=O)[O-])c1 (stereo not drawn)    > 80 µM
CCOc1ccc(NCC(=O)c2ccc(C)cc2)cc1    > 80 µM

Exam item: Endpoint output: IC50 of "C=C1CC2(OC1=O)c1ccccc1CCc1ccccc12" . Value?
Marked response: > 80 µM

----------
# study_system: Apelin receptor (Homo sapiens) (UniProt P35414)
# procedure_text: potency against CXCR6 with APJ panel – cell-based, beta-arrestin, DiscoveRx, uHTS hits, dose response (AID 624129)
# measurement_parameters: CXCR6 beta-arrestin (DiscoveRx) antagonist cell assay, APJ, run 3, dose range 1
pIC50: −log10 of the molar value.
# pIC50 >= 5 gives 1, anything below gives 0

Reference set (3 entries):
C=C1C(=O)O[C@@H]2C[C@@H](C)[C@@H]3C=CC(=O)[C@@]3(C)[C@@H](OC(=O)CC(=O)O[C@H]3[C@@H]4C(=C)C(=O)O[C@@H]4C[C@@H](C)[C@@H]4C=CC(=O)[C@]43C)[C@H]12    1
COc1ccc(C(=O)/C=C/C(=O)N(CC(=O)NC2CCCCC2)CC2CCCO2)c(O)c1 (stereo not given)    0
CCOc1ccccc1NC(=O)c1nc(S(=O)(=O)Cc2ccccc2)ncc1Cl    0

Exam item: Assess whether reported pIC50 for "Oc1c(Br)cc(Br)cc1C=NCc1ccccc1" sits at 5 or higher.
Marked response: 0

Exam item: Assess whether reported pIC50 for "COc1ccc(C(=O)/C=C/C(=O)N(CC(=O)NC2CCCCC2)Cc2cccs2)c(O)c1" sits at 5 or higher.
Marked response: 0

Exam item: Assess whether reported pIC50 for "O=C(N/N=C(\c1ccccc1)c1cccnc1)c1cccc(F)c1" sits at 5 or higher.
Marked response: 1

Exam item: Assess whether reported pIC50 for "S=C(N/N=C/c1ccccc1)N1CCOCC1" sits at 5 or higher.
Marked response: 1

Exam item: Assess whether reported pIC50 for "CCc1cc2c(=O)[nH]c(-c3ccccn3)nc2s1" sits at 5 or higher.
Marked response: 1
